Measured pKd of individual entries
biological target: T1, neurotensin receptors (frozen tissue sections from receptor-positive human tumors) (human, UniProt P30989 1-418); assay: competitive binding vs radioiodinated native neurotensin, human tumor sections
T1 construct: whole, on cells
T1 sequence (P30989 whole entry): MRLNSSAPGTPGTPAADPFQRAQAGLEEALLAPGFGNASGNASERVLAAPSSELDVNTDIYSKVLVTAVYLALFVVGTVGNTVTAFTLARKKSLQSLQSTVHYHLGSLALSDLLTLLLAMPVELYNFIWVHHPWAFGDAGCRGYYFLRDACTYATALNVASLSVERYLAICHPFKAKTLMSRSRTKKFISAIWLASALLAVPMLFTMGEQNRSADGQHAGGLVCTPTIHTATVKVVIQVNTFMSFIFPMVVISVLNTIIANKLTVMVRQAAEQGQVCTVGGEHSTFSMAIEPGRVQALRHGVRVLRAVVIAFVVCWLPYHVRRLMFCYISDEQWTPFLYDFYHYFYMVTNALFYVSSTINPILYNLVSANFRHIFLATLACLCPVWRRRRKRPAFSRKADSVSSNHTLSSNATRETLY
[ ]: non-standard residue; d: D form. The star is where a group is joined. Gly(1-amidinopiperidin-4-yl) = N=C(N)N1CCC([C@H](N)C(=O)O)CC1; DTPA = O=C(O)CN(CCN(CC(=O)O)CC(=O)O)CCN(CC(=O)O)CC(=O)*; Phe(4-guanidino) = N=C(N)Nc1ccc(C[C@H](N)C(=O)O)cc1; homoAla(PipAm) = (N-amidinopiperidinyl)homoalanine; tBuAla = CC(C)(C)C[C@H](N)C(=O)O; Chg = N[C@H](C(=O)O)C1CCCCC1; Tle = CC(C)(C)[C@H](N)C(=O)O; Aba(Apy) = not defined here
Conceptually, pKd converts a concentration in mol/L into minus its log10.

Examples from the recorded data:
BINDER: {DTPA}-[dK]P[homoAla(PipAm)]RPY[Tle]L-OH [DTPA-DLys-Pro-homoAla(PipAm)-Arg-Pro-Tyr-tBuGly-Leu-OH]
pKd: 7.85

BINDER: KPXRPYIL (N-terminal DTPA; D-Lys at 1; Gly(PipAm) ((N-amidinopiperidinyl)glycine) at 3 (X), also called Compound II) [DTPA-DLys-Pro-Gly(PipAm)-Arg-Pro-Tyr-Ile-Leu-OH]
pKd: 8.57

BINDER: {DTPA}-[dK]P[Gly(1-amidinopiperidin-4-yl)]RPY[Tle]L-OH (also called Compound X) [DTPA-DLys-Pro-Gly(PipAm)-Arg-Pro-Tyr-tBuGly-Leu-OH]
pKd: 8.46

Task: Let me know recorded pKd for KPXRPYIL (N-terminal DTPA; D-Lys at 1; (4-Gu)Phe [Phe(4-guanyl)] at 3 (X), also called Compound I; DTPA-DLys-Pro-Phe(4-guanyl)-Arg-Pro-Tyr-Ile-Leu-OH) [DTPA-DLys-Pro-(4-Gu)Phe-Arg-Pro-Tyr-Ile-Leu-OH] , thanks.
Output: 8.07

Task: Let me know recorded pKd for {DTPA}-[dK]P[Gly(1-amidinopiperidin-4-yl)]RP[dY][Tle]L-OH [DTPA-DLys-Pro-Gly(PipAm)-Arg-Pro-DTyr-tBuGly-Leu-OH] , thanks.
Output: 8.19

Task: Let me know recorded pKd for {DTPA}-[dK]P[Aba(Apy)]RPYIL-OH (reading uncertain, also called Compound III) [DTPA-DLys-Pro-Aba(Apy)-Arg-Pro-Tyr-Ile-Leu-OH] , thanks.
Output: 7.17

Task: Let me know recorded pKd for {DTPA}-[dK]P[Gly(1-amidinopiperidin-4-yl)]RPY[Chg]L-OH [DTPA-DLys-Pro-Gly(PipAm)-Arg-Pro-Tyr-Chg-Leu-OH] , thanks.
Output: 7.60

Task: Let me know recorded pKd for {DTPA}-[dK]P[Phe(4-guanidino)]RPY[Tle]L-OH (also called Compound IX; DTPA-DLys-Pro-Phe(4-guanyl)-Arg-Pro-Tyr-tBuGly-Leu-OH) [DTPA-DLys-Pro-(4-Gu)Phe-Arg-Pro-Tyr-tBuGly-Leu-OH] , thanks.
Output: 7.90

Task: Let me know recorded pKd for {DTPA}-[dY]ENKP[Gly(1-amidinopiperidin-4-yl)]RPY[Tle][tBuAla]-OH (SMILES CC(C)(C)C[C@H](NC(=O)[C@@H](NC(=O)[C@H](Cc1ccc(O)cc1)NC(=O)[C@@H]1CCCN1C(=O)[C@H](CCCNC(=N)N)NC(=O)[C@@H](NC(=O)[C@@H]1CCCN1C(=O)[C@H](CCCCN)NC(=O)[C@H](CC(N)=O)NC(=O)[C@H](CCC(=O)O)NC(=O)[C@@H](Cc1ccc(O)cc1)NC(=O)CN(CCN(CCN(CC(=O)O)CC(=O)O)CC(=O)O)CC(=O)O)C1CCN(C(=N)N)CC1)C(C)(C)C)C(=O)O, also called Compound XV) [DTPA-DTyr-Glu-Asn-Lys-Pro-Gly(PipAm)-Arg-Pro-Tyr-tBuGly-tBuAla-OH] , thanks.
Output: 8.46
